// provenance: patent US4634692A

Assay: Pharmacokinetics in dogs, plasma half-life after intravenous administration
Conditions: dog, in vivo, 0.0003 mg/kg
Protocol: The plasma level profiles of 1α,25-dihydroxy-24R-fluorocholecalciferol and 1α,25-dihydroxycholecalciferol are compared in the dog after a single intraveneous dose. Each compound is studied in four dogs with a two-week "washout" period between compounds. […] Plasma concentrations are determined by procedures routinely employed for the measurements of circulating levels of 1α,25-dihydroxycholecalciferol.
Measurement Kind: half-life (h)
Form entry: value (h) — number only.

Task: Any idea what its half-life is? The molecule is C=C1/C(=C\C=C2/CCC[C@]3(C)[C@@H]([C@H](C)CC[C@@H](F)C(C)(C)O)CC[C@@H]23)C[C@@H](O)C[C@@H]1O
Output: 14.4

----------
Test: Pharmacokinetics in dogs, plasma half-life after intravenous administration
Details: dog, in vivo, 0.0003 mg/kg, 0.3 mcg/kg, i.v., dogs, read-out: Plasma half-life (converted)
Measurement Kind: half-life (h)
Give the value, in units of h, as a plain number.

Task: Which half-life value is on record for C=C1/C(=C\C=C2/CCC[C@]3(C)[C@@H]([C@H](C)CCCC(C)(C)O)CC[C@@H]23)C[C@@H](O)C[C@@H]1O [1α,25-dihydroxycholecalciferol] ?
Output: 3.6
